src = the Immune Epitope Database (IEDB)

# study target: HLA-A*02:01
# protocol text: IEDB peptide-MHC binding, purified MHC/competitive/radioactivity; bounds were set here for any values at or beyond the usual limits of such assays
# assay setup: source organism: Homo sapiens
metric name: IC50 (nM)

I. SVMDPLIYA
II. WLLGAAMVGA
### Prompt Param metric = IC50; output whichever of I , II has the minimum value. Provide the label of your selected option as the answer.
### Response II

====

# study target: HLA-A*02:01
# protocol text: IEDB peptide-MHC binding, purified MHC/competitive/radioactivity; bounds were set here for any values at or beyond the usual limits of such assays
# assay setup: source organism: Homo sapiens
pIC50: −log10 of the molar value.
metric name: pIC50

I. NMVPFFPPV
II. VLTALLAGL
III. RLLGSLNST
IV. VMGTLVALV
### Prompt Sort by pIC50, descending. Give the order by naming the labels one after another as requested.
### Response I, IV, II, III
(I: 8.41, IV: 7.56, II: 7.09, III: 6.78)

a. FLPWHRLFLL
b. HLAVIGALL
### Prompt Lab note: record which item had the higher pIC50, a or b . Identify your pick by its label.
### Response b
(b: 6.97, a: 6.69)

a. AVIGALLAV
b. FLRNQPLTFA
### Prompt Which item exceeds the other in pIC50, a or b ? Write the label of whichever entry you select.
### Response a

I. FLLRWEQEI
II. FLPWHRLFL
### Prompt Between item I and item II , which reported pIC50 is smaller? Refer to your chosen entry by its label in the reply.
### Response II
(II: 6.95, I: 7.59)
